Hello, the source for this data is patent US20220323406A1, in case you need it.

# Test system: ENR+CD organoids
# Protocol Details: Primary screen: ATP (CellTiter-Glo 3D, CTG) cell number/viability, 2.5-D 384-well ENR+CD organoids
# Run Conditions: primary screen, dose 0.08 uM, FC relative to plate median
Measured Endpoint: Dose.FC.CTG

Please review the entries below; each comes with its answer.
| Compound | Tgt | Measured Endpoint | Result |
| --- | --- | --- | --- |
| CCC(=O)NCC[C@@H]1CCc2ccc3c(c21)CCO3 [Ramelteon] | ENR+CD organoids | Dose.FC.CTG | −0.028 log2 fold change |
| Cc1c(C(=O)NN2CCCCC2)nn(-c2ccc(Cl)cc2Cl)c1-c1ccc(Cl)cc1 [Rimonabant] | ENR+CD organoids | Dose.FC.CTG | 0.256 log2 fold change |
| C#CCC(Cc1cnc2nc(N)nc(N)c2n1)c1ccc(C(=O)N[C@@H](CCC(=O)O)C(=O)O)cc1 (stereo partly shown) [Pralatrexate] | ENR+CD organoids | Dose.FC.CTG | −0.649 log2 fold change |

Now look at this entry.
Returns the measured Dose.FC.CTG for the input compound. Input: COc1cc(Br)c(Nc2nc(-c3c(C)nc4ncccn34)cs2)c(Br)c1 [PTC-209]
−0.108 log2 fold change

* * *

Items are presented alongside their recorded Dose.FC.LYZ.S (log2 fold change).
# Test system: ENR+CD organoids (ISC to Paneth cell differentiation)
# Protocol Details: Primary screen: CCh-stimulated lysozyme secretion LYZ.S, 2.5-D 384-well ENR+CD organoid differentiation
# Format: cell-based, mouse
# Run Conditions: primary screen, dose 0.08 uM
Quick one: just the number, no unit, thanks!

Please review the entries below; each comes with its answer.
| Compound | Dose.FC.LYZ.S (log2 fold change) |
| --- | --- |
| Cc1noc(-c2ccc(CSCCC(=O)O)cc2)c1NC(=O)OC(C)c1ccccc1Cl (stereo not shown) | 0.022 |
| CC1=C(C(=O)Nc2cc3cn[nH]c3cc2F)C(c2ccc(C(F)(F)F)cc2)CC(=O)N1 (stereo not shown) [GSK429286A] | 0.247 |
| Cc1ccc(NC(=O)c2ccc(CN3CCN(C)CC3)cc2)cc1Nc1nccc(-c2cccnc2)n1 [Imatinib (STI571)] | 0.000 |

Returns the measured Dose.FC.LYZ.S (log2 fold change) for the input compound. Input: O=C(/C=C\n1cnc(-c2cc(C(F)(F)F)cc(C(F)(F)F)c2)n1)NNc1cnccn1
0.259

* * *

# Test system: ENR+CD organoids
# Protocol Details: Primary screen: ATP (CellTiter-Glo 3D, CTG) cell number/viability, 2.5-D 384-well ENR+CD organoids;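 note: compounds given at plating and again on day 3 over a 6-day differentiation from ENR+CV stem-cell-enriched precursors, ATP measured on day 6, plate median as control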
# Run Conditions: primary screen, dose 0.40 uM
Structures can show the parent of a compound that is named as a salt.
Measured Endpoint: Dose.FC.CTG (log2 fold change)
Quick one: just the number, no unit, thanks!

| Molecule | Tgt | Dose.FC.CTG (log2 fold change) |
| --- | --- | --- |
| CCc1c2c(nc3ccc(OC(=O)N4CCC(N5CCCCC5)CC4)cc13)-c1cc3c(c(=O)n1C2)COC(=O)[C@]3(O)CC [Irinotecan HCl Trihydrate] | ENR+CD organoids | −0.205 |

Returns the measured Dose.FC.CTG (log2 fold change) for the input molecule. Input: C[C@H](NC(=O)[C@@H](O)c1cc(F)cc(F)c1)C(=O)N[C@@H]1C(=O)N(C)c2ccccc2-c2ccccc21
−0.172

Request: Clc1ccc(N/N=C(\c2ccccc2)c2ccccn2)nc1
0.108

Request: COc1ccc2c(c1)c(C1=C(c3c[nH]c4ccccc34)C(=O)NC1=O)cn2CCCN(C)C
−0.036
